# Target or test system: Carbonic anhydrase 12 (Homo sapiens, UniProt O43570)
# Sequence (O43570 whole entry): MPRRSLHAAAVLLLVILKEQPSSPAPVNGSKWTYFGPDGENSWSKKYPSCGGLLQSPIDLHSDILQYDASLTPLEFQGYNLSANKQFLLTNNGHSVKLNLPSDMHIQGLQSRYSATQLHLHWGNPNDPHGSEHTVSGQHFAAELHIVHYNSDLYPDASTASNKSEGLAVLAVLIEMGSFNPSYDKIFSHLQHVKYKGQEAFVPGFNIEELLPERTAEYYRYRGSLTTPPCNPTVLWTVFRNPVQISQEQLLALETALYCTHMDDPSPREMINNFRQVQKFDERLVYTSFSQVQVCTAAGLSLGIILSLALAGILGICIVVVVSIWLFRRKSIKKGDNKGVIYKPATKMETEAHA
Assay metric: pKi
Just the number, please; pKi means minus log10 of the concentration in mol/L.

# compound `COC(=O)c1cn(-c2ccc(S(N)(=O)=O)cc2)nc1-c1ccc(Br)cc1` ; its pKi = 7.36

###

# Target or test system: Carbonic anhydrase 9 (Homo sapiens)
Assay metric: Ki (nM)
The reply should contain only the number, in nM.

Smiles structure | Observed value
NC(=O)c1cn(-c2ccc(S(N)(=O)=O)cc2)nc1-c1ccc(Cl)cc1 | 5.2
NC(=O)c1cn(-c2ccc(S(N)(=O)=O)cc2)nc1-c1ccc([N+](=O)[O-])cc1 | 49
COC(=O)c1cn(-c2ccc(S(N)(=O)=O)cc2)nc1-c1ccc([N+](=O)[O-])cc1 | 5.2

Would you kindly look at the next entry?
Let me check: `NC(=O)c1cn(-c2ccc(S(N)(=O)=O)cc2)nc1-c1ccc(F)cc1` , system Carbonic anhydrase 9 (Homo sapiens), measured Ki is 2.3
